Tested on: RAW264.7
Protocol Description: Antiinflammatory activity against LPS-stimulated mouse RAW264.7 cells assessed as inhibition of LPS-induced TNFalpha production by measuring TNFalpha level at 50 uM preincubated for 2 hrs followed by LPS treatment and measured after 16 hrs by ELISA (reference value: 100 +/- 0.45%)
Type: functional
Readout Kind: TNFalpha level (% of LPS control) (%)
Hi! Could you send only the number? It should be in %, unit omitted.

Exercise: Give a short answer stating reported TNFalpha level (% of LPS control) for "O=C1CCC[C@@H]2[C@H]3CC([C@H]4CC[C@H]5CN6C(=O)CCC[C@@H]6[C@H]6CCCN4[C@@H]56)=CN4CCC[C@@H](CN12)[C@@H]34" .
Key: 49.59

These data points were gathered from ChEMBL document CHEMBL4334525.
